Molecular target: T1, TNFR1 (Homo sapiens, UniProt P19438)
T1 chain: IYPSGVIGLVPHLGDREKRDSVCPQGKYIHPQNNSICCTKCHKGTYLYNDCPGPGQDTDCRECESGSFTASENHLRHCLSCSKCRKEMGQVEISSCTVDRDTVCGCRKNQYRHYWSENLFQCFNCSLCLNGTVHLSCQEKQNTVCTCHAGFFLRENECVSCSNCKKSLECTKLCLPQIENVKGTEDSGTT
Test: yeast display SC50
QUANTITY: apparent Kd (screen) (nM)

In the examples that follow, each entry is paired with its recorded apparent Kd (screen).
binder="R89P (designed binder) MTLQELLREEALRRAEAEAFRYALELLAEKFPEQKEYLLDLAEEIESQIRSLSGVDVEDVRKFLDKEWAWVKELLAEHPAELAEVEAAPAARLAELRAEVEAKVAA" value_units=nM recorded_number=24.4
binder="E73A (designed binder) MTLQELLREEALRRAEAEAFRYALELLAEKFPEQKEYLLDLAEEIESQIRSLSGVDVEDVRKFLDKEWAWVKALLAEHPAELAEVEAARAARLAELRAEVEAKVAA" value_units=nM recorded_number=0.593
binder="Q48G (designed binder) MTLQELLREEALRRAEAEAFRYALELLAEKFPEQKEYLLDLAEEIESGIRSLSGVDVEDVRKFLDKEWAWVKELLAEHPAELAEVEAARAARLAELRAEVEAKVAA" value_units=nM recorded_number=0.718

a. K66N (designed binder) MTLQELLREEALRRAEAEAFRYALELLAEKFPEQKEYLLDLAEEIESQIRSLSGVDVEDVRKFLDNEWAWVKELLAEHPAELAEVEAARAARLAELRAEVEAKVAA
b. A11L (designed binder) MTLQELLREELLRRAEAEAFRYALELLAEKFPEQKEYLLDLAEEIESQIRSLSGVDVEDVRKFLDKEWAWVKELLAEHPAELAEVEAARAARLAELRAEVEAKVAA
c. L7K (designed binder) MTLQELKREEALRRAEAEAFRYALELLAEKFPEQKEYLLDLAEEIESQIRSLSGVDVEDVRKFLDKEWAWVKELLAEHPAELAEVEAARAARLAELRAEVEAKVAA
d. Y37H (designed binder) MTLQELLREEALRRAEAEAFRYALELLAEKFPEQKEHLLDLAEEIESQIRSLSGVDVEDVRKFLDKEWAWVKELLAEHPAELAEVEAARAARLAELRAEVEAKVAA
Exercise: Hey, can you sort those binders up there by apparent Kd (screen), smallest first? Output spec: a listing of the labels in the requested order.
Key: a, b, d, c

A. E5M (designed binder) MTLQMLLREEALRRAEAEAFRYALELLAEKFPEQKEYLLDLAEEIESQIRSLSGVDVEDVRKFLDKEWAWVKELLAEHPAELAEVEAARAARLAELRAEVEAKVAA
B. V60G (designed binder) MTLQELLREEALRRAEAEAFRYALELLAEKFPEQKEYLLDLAEEIESQIRSLSGVDVEDGRKFLDKEWAWVKELLAEHPAELAEVEAARAARLAELRAEVEAKVAA
Exercise: # compare apparent Kd (screen) for A vs B ; return the one with the smaller value Indicate which entry you chose by stating its label.
Key: A

The reported measurements were obtained from paper PMC12416549.
